- Tested on: RXF 393
- test_summary: NCI tumour cell line growth inhibition, 48 h
The source made the active and inactive calls. Rule as the data show it: active = GI50 up to about 1.1 µM and inactive = higher.
# GI50 per record follows

Consider the worked cases shown below.
CC1(C)COC(c2ccc(C(=O)c3ccc(Cl)cc3)cc2)=N1    79.6 µM (inactive)
CC1=CCC2CC1NC(=O)CCOCCC(=O)NC2(C)C (stereo unspecified)    > 100 µM (inactive)
FC(F)(F)c1nc2nc(Cl)c(Cl)nc2n1CCCN1CCOCC1    25.4 µM (inactive)
CC(Oc1ccc2c(-c3ccccc3)cc(=O)oc2c1)C(=O)O (stereo unspecified)    > 100 µM (inactive)
Cc1cn(CC2=NCCCN2)c(=O)[nH]c1=O    > 100 µM (inactive)

Req: Need GI50 of C[C@]1(CO)CCC[C@@]2(C)C1CC[C@H]1CC3C[C@]12CC[C@]3(C)O (stereo partly specified) , thanks.
Resp: 46.7 µM (inactive)
